- System: phosphorus and calcium levels in the urine of rats
- TEST_DESCRIPTION: Urinary excretion of phosphate and calcium in rats (16 h overnight urine)
- Type: in vivo, rat
- CONDITION_LABEL: rats, oral gavage, dose 10 mg/kg, 16 h post-dose
REPORTED_METRIC: Urine P % of control (%)
State the answer as a number, implicitly in %.

Sample records with Urine P % of control:
COMPOUND | REPORTED_METRIC | UNITS | DATA_VALUE
O=C(NCCCCNC(=O)NCCOCCOCCNS(=O)(=O)c1ccc(O[C@H]2c3ccccc3C[C@@H]2N2CCCCC2)cc1)NCCOCCOCCNS(=O)(=O)c1ccc(O[C@H]2c3ccccc3C[C@@H]2N2CCCCC2)cc1 (racemic) [compound 47] | Urine P % of control | % | 51
O=C(O)CN(CCN(CC(=O)O)CC(=O)NCCOCCOCCOCCNS(=O)(=O)c1ccc(OC2c3ccccc3CC2N2CCCCC2)cc1)CC(=O)NCCOCCOCCOCCNS(=O)(=O)c1ccc(OC2c3ccccc3CC2N2CCCCC2)cc1 (stereo not drawn) | Urine P % of control | % | 77
CN1Cc2c(Cl)cc(Cl)cc2[C@H](c2cccc(S(=O)(=O)NCCOCCOCCOCCN)c2)C1 | Urine P % of control | % | 40

Problem: Quick check: Urine P % of control of CN1Cc2c(Cl)cc(Cl)cc2C(c2cccc(S(N)(=O)=O)c2)C1 (stereo not drawn) ?
Result: 52

Problem: Which Urine P % of control is reported for this compound? `CN(C)[C@H]1Cc2ccc(F)cc2[C@@H]1Oc1ccc(S(=O)(=O)NCCOCCOCCNC(=O)NCCCCNC(=O)NCCOCCOCCNS(=O)(=O)c2ccc(O[C@H]3c4cc(F)ccc4C[C@@H]3N(C)C)cc2)cc1`
Result: 93

Problem: Param item = `N=C(N)Nc1nc(-c2cccc(N3CCN(CCOCCOCCOCCNC(=O)CCOCCOCCOCCOCCOCCC(=O)NCCOCCOCCOCCN4CCN(c5cccc(-c6nc(NC(=N)N)nc7ccc(Cl)cc67)c5)CC4)CC3)c2)c2cc(Cl)ccc2n1` ; retrieve measured Urine P % of control.
Result: 95

====

- Test system: phosphorus and calcium levels in the urine of rats
- TEST_DESCRIPTION: Urinary excretion of phosphate and calcium in rats (16 h overnight urine)
- Type: in vivo, rat
- CONDITION_LABEL: rats, oral gavage, dose 10 mg/kg, 16 h post-dose
Item-by-item account of Urine P % of control
Quick reminder: number only, in %, skip the unit.

MOLECULE | TARGET_OF_ASSAY | Urine P % of control, %
CN1Cc2c(Cl)cc(Cl)cc2[C@H](c2cccc(S(=O)(=O)NCCOCCOCCOCCNC(=O)CCC(N)(CCC(=O)NCCOCCOCCOCCNS(=O)(=O)c3cccc([C@@H]4CN(C)Cc5c(Cl)cc(Cl)cc54)c3)CCC(=O)NCCOCCOCCOCCNS(=O)(=O)c3cccc([C@@H]4CN(C)Cc5c(Cl)cc(Cl)cc54)c3)c2)C1 | phosphorus and calcium levels in the urine of rats | 20

// next entry
Problem: What value of Urine P % of control on phosphorus and calcium levels in the urine of rats does CN1Cc2c(Cl)cc(Cl)cc2C(c2cccc(S(=O)(=O)NCCOCCOCCOCCNC(=O)CCC(CCC(=O)NCCOCCOCCOCCNS(=O)(=O)c3cccc([C@@H]4CN(C)Cc5c(Cl)cc(Cl)cc54)c3)(CCC(=O)NCCOCCOCCOCCNS(=O)(=O)c3cccc([C@@H]4CN(C)Cc5c(Cl)cc(Cl)cc54)c3)NCc3ccc(-c4ccc(Cl)cc4)cc3)c2)C1 (stereo in doubt) have?
Result: 100
